Below: a set of entries, each annotated with reported MCH.
experiment: Hematology assays in cynomolgus monkeys (Example 46); assay type: in vivo; conditions: Day-14
Strand notation (5' to 3'): a small letter for the sugar, then the base; units joined by * are phosphorothioate-linked, units joined directly phosphodiester-linked; [ ] holds rarer units or linkages, { } end groups; capitals alone tell only the bases. e = 2'-O-(2-methoxyethyl) (MOE); [5mC] = 5-methylcytosine; d = 2'-deoxy (DNA)
// units = pg; emit number, no label

ISIS 449709: 3-8-3, 4-8-4, 2-10-2, 3-10-3 or 4-10-4 MOE microwalk gapmer (Table 46) (antisense eG*e[5mC]*eA*e[5mC]*dA*dG*dT*dT*dT*d[5mC]*dT*dG*dG*d[5mC]*eA*eG*eG*e[5mC]); 22.4

Consider now this further substance.
[in] Would you kindly share the measured MCH for ISIS 445531: 5-8-5 or 6-8-6 MOE microwalk gapmer (Table 44) (antisense eG*eG*e[5mC]*eA*eT*dT*dG*dG*dT*dG*d[5mC]*dA*d[5mC]*eA*eG*eT*eT*eT) ?
[out] 22.2

====

// RBC count lookup, one value per entry
experiment: Hematology assays in cynomolgus monkeys (Example 46); type: in vivo; settings: Day-14
Strand notation (5' to 3'): a small letter for the sugar, then the base; units joined by * are phosphorothioate-linked, units joined directly phosphodiester-linked; [ ] holds rarer units or linkages, { } end groups; capitals alone tell only the bases. e = 2'-O-(2-methoxyethyl) (MOE); [5mC] = 5-methylcytosine; d = 2'-deoxy (DNA)
Numbers only here, please. The scale is µL⁻¹.

Reference set (4 entries):
ISIS 449711: 3-8-3, 4-8-4, 2-10-2, 3-10-3 or 4-10-4 MOE microwalk gapmer (Table 46) (antisense eA*e[5mC]*dA*dG*dT*dT*dT*d[5mC]*dT*dG*dG*d[5mC]*eA*eG); 5.6e+06
ISIS 445522: 5-8-5 or 6-8-6 MOE microwalk gapmer (Table 44) (antisense eG*e[5mC]*eA*e[5mC]*eA*dG*dT*dT*dT*d[5mC]*dT*dG*dG*e[5mC]*eA*eG*eG*e[5mC]); 5.9e+06
ISIS 449708: 3-8-3, 4-8-4, 2-10-2, 3-10-3 or 4-10-4 MOE microwalk gapmer (Table 46) (antisense eA*e[5mC]*eA*dG*dT*dT*dT*d[5mC]*dT*dG*dG*e[5mC]*eA*eG); 5.7e+06
ISIS 416858: MOE gapmer, nucleobases 1275 to 1318 of SEQ ID NO: 1 (Table 8) (antisense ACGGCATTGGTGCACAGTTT; MOE gapmer, wing and gap sizes not given here); 5.5e+06

[in] Look up RBC count: ISIS 416850: MOE gapmer, nucleobases 1275 to 1318 of SEQ ID NO: 1 (Table 8) (antisense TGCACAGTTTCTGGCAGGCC; MOE gapmer, wing and gap sizes not given here)
[out] 5.5e+06

====

experiment: Tolerability in Sprague-Dawley rats: kidney function (Example 44); assay type: in vivo; details: 50 mg/kg s.c. twice per week for 6 weeks, plasma
Strand notation (5' to 3'): a small letter for the sugar, then the base; units joined by * are phosphorothioate-linked, units joined directly phosphodiester-linked; [ ] holds rarer units or linkages, { } end groups; capitals alone tell only the bases. e = 2'-O-(2-methoxyethyl) (MOE); [5mC] = 5-methylcytosine; d = 2'-deoxy (DNA)
recorded.metric: Creatinine (mg/dL)
The answer is to be given in mg/dL; state only the numeric part.

ISIS 449710: 3-8-3, 4-8-4, 2-10-2, 3-10-3 or 4-10-4 MOE microwalk gapmer (Table 46) (antisense e[5mC]*eA*e[5mC]*dA*dG*dT*dT*dT*d[5mC]*dT*dG*dG*d[5mC]*eA*eG*eG); 0.3

Let us move to another entry and its Creatinine.
[in] So what's the measured Creatinine for this one? ISIS 449709: 3-8-3, 4-8-4, 2-10-2, 3-10-3 or 4-10-4 MOE microwalk gapmer (Table 46) (antisense eG*e[5mC]*eA*e[5mC]*dA*dG*dT*dT*dT*d[5mC]*dT*dG*dG*d[5mC]*eA*eG*eG*e[5mC])
[out] 0.4

Hello, the source for this data is patent US20230263822A1, in case you need it.
